Data credit: patent US20100210836A1

Overview of recorded PEST_LYP for various compounds
# Target desc: LYP/PTPN22 (Homo sapiens)
# Construct: catalytic domains of LYP (aa 2-309) and PTP-PEST (aa 2-323, PEST); 6xHis (N, cleaved yes); made in house; host or cells: E. coli BL21
# Sequence (Q9Y2R2 2-309): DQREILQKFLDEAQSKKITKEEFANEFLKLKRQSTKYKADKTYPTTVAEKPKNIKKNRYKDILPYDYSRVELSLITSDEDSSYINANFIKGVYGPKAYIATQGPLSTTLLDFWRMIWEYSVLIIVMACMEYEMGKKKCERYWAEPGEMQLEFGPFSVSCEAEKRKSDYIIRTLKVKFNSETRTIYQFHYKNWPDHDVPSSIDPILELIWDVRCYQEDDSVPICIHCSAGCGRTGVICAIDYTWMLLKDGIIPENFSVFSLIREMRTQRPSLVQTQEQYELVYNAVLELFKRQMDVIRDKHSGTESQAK
# Assay explanation: biochemical
# Particulars: selectivity, ratio PEST IC50 / LYP IC50, Table IV
Form: value (number only, do not type unit).

Completed entries (count: 4):
Substance smiles	PEST_LYP
Cc1ccc2[nH]c(=O)c([C@@H](c3nnnn3C3CCCC3)N(CCc3ccccc3)Cc3ccccc3)cc2c1	1.46
Cc1ccc2cc([C@H](c3nnnn3C3CCCC3)N3CCC[C@@H](C)C3)c(=O)[nH]c2c1	2.52
Cc1ccc2[nH]c(=O)c([C@H](c3nnnn3C(C)(C)C)N3CCCC4(CCCCC4)C3)cc2c1	1.33
Cc1ccc2[nH]c(=O)c([C@H](c3nnnn3C3CCCC3)N3CCN(c4nc5ccccc5[nH]4)CC3)cc2c1	1.26

Challenge: // lookup PEST_LYP for Cc1cc(C)c2cc([C@H](c3nnnn3C(C)(C)C)N3CCCC4(CCCCC4)C3)c(=O)[nH]c2c1
Response given: 1.33

Challenge: // lookup PEST_LYP for CCC(C)(C)n1nnnc1[C@@H](c1cc2cc(C)ccc2[nH]c1=O)N1CCCC2(CCCCC2)C1
Response given: 1.53

Challenge: // lookup PEST_LYP for O=c1[nH]c2ccccc2cc1[C@@H](c1nnnn1C1CCCC1)N1CCc2ccccc2C1
Response given: 1.13

Challenge: // lookup PEST_LYP for Cc1ccc2cc([C@H](c3nnnn3Cc3ccccc3)N3CCCC4(CCCCC4)C3)c(=O)[nH]c2c1C
Response given: 0.99

Challenge: // lookup PEST_LYP for Cc1ccc2cc([C@@H](c3nnnn3C3CCCC3)N3CCCCC3)c(=O)[nH]c2c1
Response given: 2.11

Challenge: // lookup PEST_LYP for CCC(C)(C)n1nnnc1[C@@H](c1cc2ccc(C)cc2[nH]c1=O)N1CCCC2(CCCCC2)C1
Response given: 1.6

Challenge: // lookup PEST_LYP for Cc1cccc2cc([C@H](c3nnnn3Cc3ccccc3)N3CCCC4(CCCCC4)C3)c(=O)[nH]c12
Response given: 1.46

Challenge: // lookup PEST_LYP for COc1ccc2cc([C@H](c3nnnn3Cc3ccccc3)N3CCCC4(CCCCC4)C3)c(=O)[nH]c2c1
Response given: 0.71

Challenge: // lookup PEST_LYP for Cc1cc(C)c2[nH]c(=O)c([C@@H](c3nnnn3Cc3ccccc3)N3CCCC4(CCCCC4)C3)cc2c1
Response given: 1.18
